- ASSAY_DETAILS: Human HepG2 cell viability assay in 384 well format
- Type: toxicity, cell-based
- Parameters: dose 125 nL, time 70.5 hour; concentration not given beside the values
- CONDITION_DESCRIPTION: HepG2 cells, read-out: Inhibition
Record form. Attribute: cytotoxicity at 70.5 h. Fill in for each entry.
Give the number; % is assumed, so skip it.

Lookup: Note down cytotoxicity at 70.5 h recorded for "c1cnc2nc(C3CCNCC3)[nH]c2c1"
Found: -11.9

Lookup: Tell me cytotoxicity at 70.5 h reported for Cc1noc(C)c1CNCC1COCc2c(-c3ccoc3)nnn2C1 (stereo not drawn)
Found: -9.07

Lookup: Fill in cytotoxicity at 70.5 h for record "Cc1nc(CSCCC(=O)NCCNC(=O)OC(C)(C)C)cs1"
Found: 3.27

Lookup: Note cytotoxicity at 70.5 h for the compound shown: "CCN1CCN(C[C@@H]2CN(c3ncccc3F)C[C@@H]2CO)CC1"
Found: 23.4

Lookup: Identify measured cytotoxicity at 70.5 h corresponding to CN(CC1CC1)C(=O)CN(Cc1cccc(O)c1)C1CCC(O)CC1 (stereo not drawn)
Found: -6.77

Lookup: Kindly indicate its recorded cytotoxicity at 70.5 h. Item: CCc1ncc2c(n1)CN(C(C)C(=O)N1CCOCC1)CC2 (stereo not drawn)
Found: 17

Lookup: Provide measured cytotoxicity at 70.5 h value, entry: "CCc1cn[nH]c1C1CCN(c2cc(C)c3cc(OC)ccc3n2)CC1"
Found: 1.76

Lookup: Return cytotoxicity at 70.5 h for the following compound: COc1ccccc1C(=O)N1CCCC1c1nncn1CC(C)C (stereo not drawn)
Found: -0.719

###

- ASSAY_DETAILS: Human HepG2 cell viability assay in 384 well format
- Assay type: toxicity, cell-based
- Set-up: dose 125 nL, time 70.5 hour; concentration not given beside the values
- CONDITION_DESCRIPTION: HepG2 cells, read-out: Inhibition
REPORTED_PROPERTY: cytotoxicity at 70.5 h (%)
Kindly provide the numeric value in % only, without the unit symbol.

Lookup: Determine its reported cytotoxicity at 70.5 h: Cc1cnn(CC2CN(Cc3nc4ccccc4s3)CCO2)c1 (stereo not given)
Found: -4.94

Lookup: Identify cytotoxicity at 70.5 h associated with the compound "O=C(O)CC[C@@H]1CN(c2ncccc2F)CC[C@@H]1N1CCOCC1"
Found: -8.92

Lookup: Please indicate cytotoxicity at 70.5 h recorded for O=C(Nc1nncs1)NC1CCN(Cc2ccccc2)C1 (stereo not given)
Found: -5.56

Lookup: Using known records, supply cytotoxicity at 70.5 h for "CC(=O)NC1CCN(c2nc(N(C)C)nc3c2CCCC3)CC1"
Found: -1.98

Lookup: Identify measured cytotoxicity at 70.5 h corresponding to c1nc(N2CCCCC2Cn2cncn2)c2sccc2n1 (stereo not given)
Found: -5.69

Lookup: Report cytotoxicity at 70.5 h, nothing else, for this compound: "COc1ccccc1OCCCc1cc(C)nc(N)n1"
Found: -7.2

Lookup: For the compound CN(C)C(C(=O)NCC1(N(C)C)CCOCC1)c1ccccc1F (stereo not given) , report cytotoxicity at 70.5 h.
Found: -7.91

Lookup: Write down cytotoxicity at 70.5 h measured for item Cc1cc(C)c2nc(CN3CCCC(c4cc[nH]n4)C3)cc(O)c2c1 (stereo not given)
Found: -2.87

Lookup: Respond only with cytotoxicity at 70.5 h recorded for "CN1CCN(CCOc2ccc(NC(=O)c3ccoc3)cc2)CC1"
Found: -4.12

Lookup: Let me know recorded cytotoxicity at 70.5 h for CN1CCc2nc(C3CCCN(S(=O)(=O)c4ccccc4)C3)ncc2C1 (stereo not given) , thanks.
Found: -1.43

Lookup: # return recorded cytotoxicity at 70.5 h for entry COC(=O)c1ccc2ccn(CC3CCNC3)c(=O)c2c1 (stereo not given)
Found: -1.63

Lookup: Return reported cytotoxicity at 70.5 h. Input compound: Cn1cc(C2CCCN2Cc2csc(-c3ccccc3)n2)cn1 (stereo not given)
Found: -7.14

Lookup: Retrieve cytotoxicity at 70.5 h measured for "CNC(=O)CN1CC[C@H]2CN(C(=O)c3cccn3C)C[C@H]2C1" and print it.
Found: -5.44

Lookup: Answer with the recorded cytotoxicity at 70.5 h for the compound listed here: "Cc1csc(C(C)(C)NCCNS(C)(=O)=O)n1"
Found: 18.5

Lookup: Give the reported value of cytotoxicity at 70.5 h for this record: CC(C)C(O)CNC(=O)Nc1ccc(F)c(Cl)c1 (stereo not given)
Found: -0.302
